# Tested on: Liver microsomes
# assay protocol: Metabolic stability in rat liver microsomes in presence of NADPH and UDPGA
# Format: ADME, Microsome
readout type: Stability (µL/min/mg)

# structure string, Stability (µL/min/mg)
data = [
    ("CN1CCN(S(=O)(=O)N(C)[C@H]2CCCn3c2nc(C(=O)NCc2ccc(F)cc2)c(O)c3=O)CC1", 10),
    ("CN(C)C(=O)C(=O)N(C)[C@H]1CCCCn2c1nc(C(=O)NCc1ccc(F)cc1)c(O)c2=O", 11),
]

====

# assay protocol: Protein binding in rat plasma
# Format: ADME, cell-free
# particulars: read-out: PPB (converted)
readout type: fraction unbound

Solved entries (count: 3):
# structure string, fraction unbound
rows = [
    ("CN(C)C(=O)C(=O)N(C)[C@H]1CCCCn2c1nc(C(=O)NCc1ccc(F)cc1)c(O)c2=O", 0.06),
    ("CN(C(=O)CS(=O)(=O)N(C)C)[C@H]1CCCn2c1nc(C(=O)NCc1ccc(F)cc1)c(O)c2=O", 0.26),
    ("CN(C)S(=O)(=O)N(C)[C@@H]1CCCn2c1nc(C(=O)NCc1ccc(F)cc1)c(O)c2=O", 0.01),
]

[a] CN1CCN(S(=O)(=O)N(C)[C@H]2CCCn3c2nc(C(=O)NCc2ccc(F)cc2)c(O)c3=O)CC1
[b] CN(C)C(=O)C(=O)N(C)[C@H]1CCCn2c1nc(C(=O)NCc1ccc(F)cc1)c(O)c2=O
Input: Which of the two items, a and b , has the greater recorded fraction unbound? Let me know the label of the one you choose.
Output: a
